experiment: qHTS Assay for Lipid Storage Modulators in Drosophila S3 Cells; settings: BODIPY lipid droplet fluorescence, 18-24 h, cells fed with added oleic acid; measured here: cell count max response;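 also: cells counted by Cell Tracker Red CMTPX staining in the red channel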
Out of some 320,000 compounds screened, about 2,100 (0.66%) were called active. Not shown: some 53% with an inconclusive outcome. For the sample, actives were picked, then their nearest neighbours and some compounds at random.
PROPERTY_NAME: cell number change (%)
Field: numeric (%). Do not append units.

Some compounds with known cell number change results, for comparison:
COMPOUND: O=C(NCc1cccs1)NC1CCCCC1
PROPERTY_NAME: cell number change
NUMBER: 3.84
//
COMPOUND: O=C(Nc1ccc2ccccc2c1)c1ccc(Cl)cc1
PROPERTY_NAME: cell number change
NUMBER: -18.8
//
COMPOUND: O=C(Nc1ccc(-n2cc(Cl)cn2)cc1)c1ccncc1
PROPERTY_NAME: cell number change
NUMBER: 13
//
COMPOUND: Cc1c(C(=O)N2CCCC2)sc(NC(=O)c2ccco2)c1C#N
PROPERTY_NAME: cell number change
NUMBER: -19.3
//
COMPOUND: N#C/C(=C/c1cccc([N+](=O)[O-])c1)c1nnc2n1CCCCC2
PROPERTY_NAME: cell number change
NUMBER: -13.7
//
COMPOUND: Cc1cc2oc(=O)sc2cc1NS(=O)(=O)c1ccccc1
PROPERTY_NAME: cell number change
NUMBER: 5.22
//
COMPOUND: O=C(NCC(O)c1ccc2ccccc2c1)c1c(F)cccc1F (configuration not stated)
PROPERTY_NAME: cell number change
NUMBER: 4.67
//
COMPOUND: CC1CCC2(CC1)NC(=O)N(CC(=O)Nc1ccc3c(c1)CCC3)C2=O (configuration not stated)
PROPERTY_NAME: cell number change
NUMBER: -0.637

Q: Provide cell number change value for the following compound: CCOC(=O)c1[nH]c(C)c(C(=O)NCCCN2CCOCC2)c1C
A: 18.3

Q: Provide cell number change value for the following compound: Cc1cc(=O)[nH]c(SCC(=O)N2CCCCC2)n1
A: 4.95

Q: Provide cell number change value for the following compound: Cc1ccc(NC(=O)c2cccnc2)cc1S(=O)(=O)N(C)C
A: 5.29
